target: Human immunodeficiency virus type 1 reverse transcriptase (Human immunodeficiency virus 1); test: Inhibition of HIV1 reverse transcriptase
So I've got a bunch of compounds here, and I need their IC50 values.

Name the reported IC50 value associated with the compound CCOCn1c(Cc2ccc(F)cc2)c(C(C)C)c(=O)n(O)c1=O > 100 µM

# return IC50 for each item in the list
1. CC(C)c1c(Cc2ccc(F)cc2)n(COCc2ccccc2)c(=O)n(O)c1=O
2. CC(C)c1c(Cc2ccc(F)cc2)n(COCc2ccc(F)cc2)c(=O)n(O)c1=O

> 100 µM
> 100 µM

Values were extracted from ChEMBL document CHEMBL1649100.
